Test system: HCT-116 colon
test.protocol: NCI-60 one-dose screen, 48 h (100 = growth as untreated, 0 = no growth, -100 = all killed)
details: 10 µM unless noted
Compounds without any hit were thinned out: in the full panel of roughly 83,000, 20% have a hit.
Label key: yes (1) means growth under 30%; no (0) means growth of 30% or more.

mol.smiles	group.label
COc1cc(C(C)=C(c2ccc(OCCN(C)C)cc2)c2ccc(OCCN(C)C)cc2)ccc1F	no (0)
O=C(/C=C/c1ccc(Cl)c(Cl)c1)Nc1ncc(Cc2ccc(Cl)c(Cl)c2)s1	yes (1)
c1ccc(-c2cn3c(-c4c[nH]c5ccccc45)csc3n2)cc1	no (0)
C[C@H](Nc1ncnc2ccc(-c3cnc(Cl)c(NS(C)(=O)=O)c3)cc12)c1ccccc1	yes (1)
CN1CCN(Cc2ccc(NC(=O)c3cncc(C#Cc4cnc5ccc(O[C@@H]6CCOC6)nn45)c3)cc2C(F)(F)F)CC1	yes (1)
CCNC(=O)Oc1ccc(/C(=C(/C)c2ccc(OC)cc2)c2ccc(OCCN3CCCCCC3)cc2)cc1	yes (1)
C#C[C@]1(O)CC[C@H]2[C@@H]3CC=C4c5sc(N6CCN(C)CC6)nc5CC[C@]4(C)[C@H]3CC[C@@]21C	yes (1)
NC1=NC2(CCCC2)N(c2ccc(S(=O)(=O)Nc3nccs3)cc2)C(N)=N1	no (0)
O=C(CSc1nnc(-c2ccc(Cl)cc2)n1-c1ccccc1)Nc1ccc(Cl)cc1	yes (1)

----------
System: UACC-62 melanoma
test.protocol: NCI-60 one-dose screen, 48 h (100 = growth as untreated, 0 = no growth, -100 = all killed)
details: 10 µM unless noted
The panel holds about 83,000 compounds, 20% with a hit somewhere; the sample as a whole holds those more often.

molecule	growth / %
C/C(CC1(O)C(=O)Nc2ccccc21)=N\O (stereo not given)	99.7
CCc1nnc(NC(=O)c2cc(-c3ccc(Cl)cc3Cl)oc2C)s1	73.2
O=C(CCCCCCNC(=O)C(O)(O)C(F)(F)F)Nc1ncc(-c2ccccc2)s1	-76.6
CNC(=O)c1cc(N2CCc3cc(NC(=O)Nc4ccc(N5CCOCC5)c(C(F)(F)F)c4)ccc32)ccn1	-29.8
CCCCCCN1C=C/C(=C\C(=O)n2ccc3ccccc32)c2ccccc21	57.9

----------
Test system: HCT-15 colon
test.protocol: NCI-60 one-dose screen, 48 h
details: 10 µM unless noted
Method: Growth inhibition of the HCT-15 human tumor cell line is measured as a screen for anti-cancer activity. Cells are grown in 96 well plates and exposed to the test compound for 48 hours. Compounds are tested at a single concentration, which is 10^-5 M for most compounds. The reported endpoint is percent growth (GI% or GIPRCNT), where numbers from 0 - 100% represent growth inhibition, and numbers from -100% - 0 represent cell death. For example, a value of 40 represents 60% growth inhibition. […]
The panel holds about 83,000 compounds, 20% with a hit somewhere; the sample as a whole holds those more often. Activity calls are given as the source filed them. The calls were made as follows: active = growth percent below 10; inactive = the rest.
Outcome codes: TRUE for active, FALSE for inactive

molecule	assayed.system	group.label
Cc1ccc(C(=O)CSc2nc3ccccc3c(=O)n2C)cc1	HCT-15 colon	FALSE
C#C[C@]1(O)CC[C@H]2[C@@H]3CC=C4c5sc(Nc6cc(Cl)ccc6OC)nc5CC[C@]4(C)[C@H]3CC[C@@]21C	HCT-15 colon	FALSE
O=C(CCCCCCN1CC(=O)N2[C@@H](c3ccccc3Br)c3[nH]c4ccccc4c3C[C@H]2C1=O)NO	HCT-15 colon	FALSE
CS(=O)(=O)c1ccc(/C(=N/N=C(N)N)c2ccc(F)cc2)cc1	HCT-15 colon	FALSE
COc1ccc(/C(=N\N=C(N)N)c2ccc(Cl)cc2)cc1OC	HCT-15 colon	FALSE
CCCN1C=C/C(=C\C(=O)n2ccc3ccccc32)c2ccccc21	HCT-15 colon	FALSE
CCOC(=O)C(=O)Nc1ccc2c(ccn2C(=O)c2cccc(F)c2)c1	HCT-15 colon	FALSE
CC(=C(c1ccc(OCCN2CCCC2)cc1)c1ccc(OCCN2CCCC2)cc1)c1ccc(Cl)cc1	HCT-15 colon	TRUE
Cc1ncn(-c2ccc(/C=N/Nc3ccnc4cc(Cl)ccc34)cc2)c1C	HCT-15 colon	TRUE
O=C(CCCCCCNC(=O)c1csc(Br)n1)NO	HCT-15 colon	FALSE
N#C/C(=C\c1cccc2c1OCO2)C(=O)Nc1sc2c(c1C#N)CCCC2	HCT-15 colon	FALSE
Cc1csc(/N=C(N)/N=C(\N)c2cccs2)n1	HCT-15 colon	FALSE
CC(C)C(/C=C/c1[nH]ncc1-c1cc(Cl)ccc1O)N1CCOCC1 (stereo not given)	HCT-15 colon	FALSE
CCCCCCNC(=O)Oc1ccc(/C(=C(/C)c2ccc(Cl)cc2)c2ccc(OCCN3CCCCCC3)cc2)cc1	HCT-15 colon	TRUE
NS(=O)(=O)c1ccc(Nc2nc(Nc3ccccc3)nc(N3N=C(c4ccc(Cl)cc4)CC3c3ccc(Cl)cc3)n2)cc1 (stereo not given)	HCT-15 colon	FALSE
COc1ccc(/C=N/NC(=O)CSc2nc(-c3cnccn3)cc(-c3cccs3)c2C#N)cc1OC	HCT-15 colon	FALSE
N#Cc1c(-c2cccs2)cc(-c2cnccn2)nc1SCC(=O)N/N=C/c1cccs1	HCT-15 colon	FALSE
CC1=C(C)C(=O)C(Nc2ccc3c(c2)OCO3)=C(Br)C1=O	HCT-15 colon	FALSE
COc1ccccc1Cn1cc(C#N)c(N)c1C(=O)c1ccc(Br)cc1	HCT-15 colon	FALSE
O=S(=O)(NCCCNc1nccc(-c2[nH]c(-c3ccccc3)nc2-c2ccc(F)c(O)c2)n1)c1ccc(C(F)(F)F)cc1	HCT-15 colon	FALSE

----------
System: HOP-92 NSCLC
test.protocol: NCI-60 one-dose screen, 48 h (100 = growth as untreated, 0 = no growth, -100 = all killed)
details: 10 µM unless noted
This is part of a sample that, as a whole, favours compounds with a hit. Of some 83,000 tested, about 20% had one in any assay.
Field: label. Allowed values: Yes (growth < 30%) or No (growth >= 30%).

mol.smiles	group.label
CN(C)S(=O)(=O)c1ccc(-c2nc(C(Cl)Cl)nc3cc(-c4ccc(F)cc4)nn23)cc1	Yes
CCOC(=O)c1ccc(NC2=C(Cl)C(=O)c3nc(C)ccc3C2=O)cc1	No
CCCCSC1=C(Cl)CN(c2ccccc2)C1=O	No
Cn1c2nc3ccccc3c-2cc2ccccc21	No
Cc1ccc(-c2csc(N/N=C/c3cccs3)n2)cc1	No
O=C(Nc1ccc(Cl)c(C(F)(F)F)c1)Nc1ccc2c(ccn2C(=O)c2cccc(F)c2)c1	Yes
CC(=O)OC[C@@]12Oc3c(cccc3-c3ccc(O)c4c3O[C@]3(COC(C)=O)C(=C4O)C(=O)C[C@H](C)[C@@H]3OC(C)=O)C(O)=C1C(=O)C[C@H](C)[C@@H]2OC(C)=O	Yes
COc1ccc2[nH]cc(-c3nn4cc(-c5ccncc5)nc4s3)c2c1	Yes
Cc1ccc2c(n1)C(=O)C(Cl)=C(Nc1cc(C(F)(F)F)cc(C(F)(F)F)c1)C2=O	No

----------
System: NCI-H460 lung
test.protocol: NCI-60 one-dose screen, 48 h (100 = growth as untreated, 0 = no growth, -100 = all killed)
details: 10 µM unless noted
About 83,000 compounds went through this panel and 20% of them were active in at least one assay; those are over-represented in the sample as a whole.
true (1) if growth is below 70%. false (0) if not; exact matches included in false (0).

compound	group.label
C#C[C@]1(O)CC[C@H]2[C@@H]3CC=C4c5sc(Nc6cccc(F)c6)nc5CC[C@]4(C)[C@H]3CC[C@@]21C	true (1)
Clc1cccc(/C=N/Nc2nc(N/N=C/c3cccc(Cl)c3)nc(N3CCOCC3)n2)c1	false (0)
COc1ccc(-c2cnc(NC(=O)CCCCCCNC(=O)C(O)(O)C(F)(F)F)s2)cc1	true (1)
Cc1ccc([C@H]2c3[nH]c4ccccc4c3C[C@H]3C(=O)N(CCCCCCC(=O)NO)CC(=O)N23)s1	true (1)
CCCc1cc2cc(-n3nc(CC)c4c3CC(C)(C)CC4=O)cc(NC3CCC(O)CC3)c2c(=O)[nH]1 (stereo not drawn)	true (1)
O=C(Nc1ccc(N=Cc2c(O)[nH]c3ccccc23)cc1)Nc1ccc(S(=O)(=O)Nc2ncccn2)cc1	false (0)
CC1=C(C)C(=O)C(Nc2ccc(C)c(C)c2)=C(Br)C1=O	false (0)
CN1CCN(c2ccc(Nc3nc(NCCCNS(=O)(=O)c4cccc5ccccc45)c4sccc4n3)cc2)CC1	true (1)
CC(C)(C)OC(=O)Nc1ccc(-c2cccc(Oc3ccc4nnc(Cl)n4n3)c2)cc1	false (0)
O=S(=O)(Oc1ccc(-c2cn3ccoc3n2)cc1)c1cccc(C(F)(F)F)c1	false (0)
CCOP(=O)(OCC)OC[C@]12CC[C@@H](C)[C@H](C)C1C1=CC[C@@H]3[C@@]4(C)CCCNC(C)(C)[C@@H]4CC[C@@]3(C)[C@]1(C)CC2 (stereo partly drawn)	true (1)
C#Cc1nc(/C=C\CCCCCCC(=O)NO)cs1	true (1)
O=C(COc1ccc(/C=C2\C(=O)Nc3cc(Cl)ccc32)cc1)Nc1ccc(Cl)cc1	false (0)
CCN(CC)c1ccc(/C=N/NC(=O)c2ccc(S(N)(=O)=O)cc2)cc1	true (1)
Cc1ccc(/C=N/Nc2nc(Nc3ccccc3)nc(Nc3ccc(S(N)(=O)=O)cc3)n2)cc1	true (1)
CN1CCN(CC#CCn2c3c(c4ccccc42)C[C@]2(C)[C@H]4CC=C5[C@@H]6CC(C)(C)CC[C@]6(C(=O)N6CCOCC6)CC[C@@]5(C)[C@]4(C)CC[C@H]2C3(C)C)CC1	true (1)
CC1=C(C)C(=O)C(Nc2cccc(C(F)(F)F)c2)=C(Br)C1=O	false (0)

Origin of measurements: PubChem BioAssay (NCI)
